From: patent US10167279B2

- measurement.target: b-Raf (V600E) (Homo sapiens (Human), UniProt P15056, V600E)
- Sequence (P15056 whole entry V600E): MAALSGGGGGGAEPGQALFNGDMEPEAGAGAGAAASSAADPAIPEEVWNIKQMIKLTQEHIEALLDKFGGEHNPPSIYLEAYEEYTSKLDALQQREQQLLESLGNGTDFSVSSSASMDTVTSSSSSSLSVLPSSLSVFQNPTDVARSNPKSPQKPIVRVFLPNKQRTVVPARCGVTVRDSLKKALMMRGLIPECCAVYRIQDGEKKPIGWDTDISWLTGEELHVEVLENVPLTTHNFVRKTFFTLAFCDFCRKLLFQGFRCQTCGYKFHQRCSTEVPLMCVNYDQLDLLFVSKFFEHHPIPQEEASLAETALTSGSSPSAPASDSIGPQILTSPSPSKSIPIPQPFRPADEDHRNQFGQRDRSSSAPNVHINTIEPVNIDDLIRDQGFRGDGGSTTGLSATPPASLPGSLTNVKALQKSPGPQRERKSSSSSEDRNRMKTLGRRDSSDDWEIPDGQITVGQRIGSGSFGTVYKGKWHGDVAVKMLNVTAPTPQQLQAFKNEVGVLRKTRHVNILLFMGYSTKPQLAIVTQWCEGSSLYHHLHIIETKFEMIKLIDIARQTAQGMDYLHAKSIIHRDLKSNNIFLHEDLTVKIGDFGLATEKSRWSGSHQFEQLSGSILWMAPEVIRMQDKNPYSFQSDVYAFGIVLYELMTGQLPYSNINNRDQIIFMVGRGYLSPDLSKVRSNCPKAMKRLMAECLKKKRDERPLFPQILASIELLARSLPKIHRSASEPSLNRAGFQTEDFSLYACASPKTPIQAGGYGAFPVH
- protocol.notes: In vitro Raf activity determination (Alpha Screen, phospho-MEK), b-Raf (V600E)
- details: ATP 10 μM, 60 min pre-incubation, 3 hours reaction
test.readout: IC50 (nM)

Look over these answered cases.
> print(dat)
                                test.smiles  test.readout  measured.value
1  CCOc1ncc(-c2cc(NC(=O)c3ccnc(C(C)(F)F)c3)ccc2C)cc1C1(O)COC1          IC50            1.22
2  COc1ncc(-c2cc(NC(=O)c3cc(C(C)(C)N)cc(C(F)(F)F)c3)cnc2C)cc1C1(F)COC1          IC50            13.2
3  COc1ncc(-c2cc(NC(=O)c3cc(C(F)(F)F)ccn3)cnc2C)cc1C1(F)COC1          IC50          0.0593
4  CCOc1nnc(-c2cc(NC(=O)c3ccnc(C(C)(C)F)c3)cnc2C)cc1C1(C)COC1          IC50            2.15
5  CCOc1ncc(-c2cc(NC(=O)c3ccnc(C(F)(F)F)c3)cnc2C)cc1C1(C)COC1          IC50           0.613

P = Cc1ncc(NC(=O)c2ccnc(C(C)(F)F)c2)cc1-c1cccc(C2(C)COC2)c1
Q = COc1cc(-c2cc(NC(=O)c3ccnc(C(C)(C)C#N)c3)ccc2C)cc(C2COC2)c1
Given the listed items, does P or Q have the lesser reported IC50? // caller expects the label of the chosen entry P
(P: 3.71 nM, Q: 25000 nM)

###

- measurement.target: C-Raf FL (Homo sapiens (Human), UniProt P04049, Y340E/Y341E)
- Sequence (P04049 whole entry Y340E/Y341E): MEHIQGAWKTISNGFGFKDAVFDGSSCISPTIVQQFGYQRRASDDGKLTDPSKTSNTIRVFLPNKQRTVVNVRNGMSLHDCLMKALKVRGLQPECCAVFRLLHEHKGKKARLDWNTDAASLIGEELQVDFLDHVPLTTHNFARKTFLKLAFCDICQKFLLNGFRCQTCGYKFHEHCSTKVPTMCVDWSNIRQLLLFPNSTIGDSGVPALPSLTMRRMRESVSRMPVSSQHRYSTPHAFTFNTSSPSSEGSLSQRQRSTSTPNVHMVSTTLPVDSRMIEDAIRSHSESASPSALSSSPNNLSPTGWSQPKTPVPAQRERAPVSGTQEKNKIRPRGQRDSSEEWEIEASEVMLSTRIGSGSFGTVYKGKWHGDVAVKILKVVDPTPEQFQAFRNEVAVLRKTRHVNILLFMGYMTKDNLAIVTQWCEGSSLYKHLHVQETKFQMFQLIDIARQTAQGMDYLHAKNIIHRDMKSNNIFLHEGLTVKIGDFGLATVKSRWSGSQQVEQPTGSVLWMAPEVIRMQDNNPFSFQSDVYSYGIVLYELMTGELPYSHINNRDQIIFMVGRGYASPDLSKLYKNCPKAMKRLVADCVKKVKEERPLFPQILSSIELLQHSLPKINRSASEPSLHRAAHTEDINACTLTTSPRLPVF
- Sequence (P63104 whole entry partner): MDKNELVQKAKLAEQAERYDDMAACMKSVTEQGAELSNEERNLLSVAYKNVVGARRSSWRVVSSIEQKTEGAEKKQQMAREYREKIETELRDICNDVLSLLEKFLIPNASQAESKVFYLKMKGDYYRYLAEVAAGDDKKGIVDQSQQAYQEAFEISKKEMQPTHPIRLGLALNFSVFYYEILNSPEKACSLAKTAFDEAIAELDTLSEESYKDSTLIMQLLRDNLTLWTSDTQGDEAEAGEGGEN
- protocol.notes: In vitro Raf activity determination (Alpha Screen, phospho-MEK), C-Raf FL (full length, Y340E/Y341E)
- details: ATP 1 μM; 60 min pre-incubation; 1 hour reaction; column head does not say FL or TR
test.readout: IC50 (nM)

P = CCOc1ncc(-c2cc(NC(=O)c3cnnc(C(F)(F)F)c3)cnc2C)cc1C1CCOCC1 [Example 163]
Q = Cc1ccc(NC(=O)c2ccnc(C(F)(F)F)c2)cc1-c1cc(C2CCOCC2)nc(N(CCO)CCO)c1 [Example 176]
R = Cc1ccc(NC(=O)c2cccc(C(F)(F)F)c2)cc1-c1cc(NCCO)nc(C2(O)COC2)c1 [Example 300]
Sort ascending by IC50. Dear reader, please state the labels in the requested order. R, P, Q
(R: 0.1 nM, P: 0.3 nM, Q: 0.684 nM)

a = Cc1ccc(NC(=O)c2cccc(C(F)(F)F)c2)cc1-c1cc(C2CCOCC2)nc(N(CCO)CCO)c1 [Example 178]
b = CCOc1ncc(-c2cc(NC(=O)c3ccnc(C(C)(C)C#N)c3)ccc2C)cc1C1(C#N)CCOC1 (stereo not shown) [Example 169]
Given the listed items, does a or b have the lesser reported IC50? // caller expects the label of the chosen entry a
(a: 0.136 nM, b: 2 nM)

1 = Cc1nc2cc(C3CCOCC3)cc(-c3cc(NC(=O)c4ccnc(C(F)(F)F)c4)ccc3C)c2[nH]1 [Example 220]
2 = COc1ncc(-c2cc(NC(=O)c3ccnc(C(C)(F)F)c3)ccc2C)cc1C1(CF)COC1 [Example 103]
Given the listed items, does 1 or 2 have the lesser reported IC50? // caller expects the label of the chosen entry 2
